Target: T1, beta-catenin in DLD1 TCF/LEF luciferase reporter cells (UniProt P35222 1-781)
T1 sequence (looked up): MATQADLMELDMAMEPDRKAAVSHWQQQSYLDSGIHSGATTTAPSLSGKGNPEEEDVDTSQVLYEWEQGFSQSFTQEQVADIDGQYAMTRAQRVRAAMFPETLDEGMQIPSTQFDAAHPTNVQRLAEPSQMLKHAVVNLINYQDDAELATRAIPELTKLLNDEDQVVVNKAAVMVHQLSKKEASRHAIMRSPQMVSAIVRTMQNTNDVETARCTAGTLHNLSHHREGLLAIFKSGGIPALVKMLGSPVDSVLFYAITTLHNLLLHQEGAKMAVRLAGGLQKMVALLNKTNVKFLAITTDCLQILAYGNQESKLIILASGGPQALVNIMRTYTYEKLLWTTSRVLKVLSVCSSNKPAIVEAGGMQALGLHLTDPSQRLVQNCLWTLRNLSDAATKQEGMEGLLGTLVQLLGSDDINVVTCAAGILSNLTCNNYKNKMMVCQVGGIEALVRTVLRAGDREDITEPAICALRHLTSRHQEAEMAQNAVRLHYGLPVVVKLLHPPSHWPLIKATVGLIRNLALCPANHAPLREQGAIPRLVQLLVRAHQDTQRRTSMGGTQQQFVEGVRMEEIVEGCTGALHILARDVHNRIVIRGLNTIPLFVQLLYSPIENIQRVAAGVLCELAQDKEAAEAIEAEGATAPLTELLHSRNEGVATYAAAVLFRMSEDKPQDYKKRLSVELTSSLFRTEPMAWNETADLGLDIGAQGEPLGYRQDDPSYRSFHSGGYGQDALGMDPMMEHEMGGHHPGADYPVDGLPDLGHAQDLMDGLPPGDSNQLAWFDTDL
Assay: cell-based or functional assay
Starred links: 1 amine or outer side, 2 acyl side, 3 side chain; linkers in the order of their positions; H or OH if unused. Positions of bridges follow the written chain, without caps; N, C: chain ends. Non-standard residues stand in square brackets, D forms with d. Primed or numbered codes have the meaning given here. PyrS2″ = (S)-3-amino-1-((pent-4-en-1-yloxy)carbonyl)pyrrolidine-3-carboxylic acid (stapling residue), C=CCCCOC(=O)N1CC[C@@](N[*:1])(C(=O)[*:2])C1; B5(18) = 2,2-bis(4-pentenyl)glycine (2-amino-2-(pent-4-en-1-yl)hept-6-enoic acid), stitching residue, C=CCCCC(CCCC=C)(N[*:1])C(=O)[*:2]; TfeGA = (S)-2-amino-3-((carboxymethyl)(2,2,2-trifluoroethyl)amino)propanoic acid, O=C([C@H](CN(CC(=O)[*:3])CC(F)(F)F)N[*:1])[*:2]; Phe(2-Cl) = N[C@@H](Cc1ccccc1Cl)C(=O)O; Bta = N[C@@H](Cc1csc2ccccc12)C(=O)O; αAllylPro = C=CC[C@@]1(C(=O)O)CCCN1; tBuAla = CC(C)(C)C[C@H](N)C(=O)O
reported.endpoint: DLD1 reporter assay Abs IC50

Exercise: Give the value of DLD1 reporter assay Abs IC50 reported for the following: Ac-[αAllylPro]D[tBuAla][B5(18)]D[TfeGA]KAFN[PyrS2″][Phe(2-Cl)][Bta]Q-NH2 (staple 1-4, 4-11) [I-1011]
Key: > 20 µM

Exercise: Input Ac-[αAllylPro]D[tBuAla][B5(18)]D[TfeGA]FAFN[PyrS2″][Phe(2-Cl)][Bta]Q-NH2 (staple 1-4, 4-11) [I-1008] , output reported DLD1 reporter assay Abs IC50.
Key: 13 µM

Exercise: Provide DLD1 reporter assay Abs IC50 value for the following binder: Ac-[αAllylPro]D[tBuAla][B5(18)]DDAAFS[PyrS2″][Phe(2-Cl)][Bta]Q-NH2 (staple 1-4, 4-11) [I-1017]
Key: > 20 µM

Exercise: Specify measured DLD1 reporter assay Abs IC50 for Ac-[αAllylPro]D[tBuAla][B5(18)]D[TfeGA]ALFN[PyrS2″][Phe(2-Cl)][Bta]Q-NH2 (staple 1-4, 4-11) [I-1002] .
Key: > 20 µM

Exercise: Quote DLD1 reporter assay Abs IC50 reported for Ac-[αAllylPro]D[tBuAla][B5(18)]D[TfeGA]ASFN[PyrS2″][Phe(2-Cl)][Bta]Q-NH2 (staple 1-4, 4-11) [I-1004] please.
Key: > 20 µM

Now consider the entry below.
Exercise: Quickly give me recorded DLD1 reporter assay Abs IC50 for Ac-[αAllylPro]D[tBuAla][B5(18)]D[TfeGA]LAFN[PyrS2″][Phe(2-Cl)][Bta]Q-NH2 (staple 1-4, 4-11) [I-1007]
Key: 3.3 µM
